Can you tell me protein stability index for the items I'm about to list?
assayOverview: protein stability index of a GFP-peptide fusion (yeast GPS) (PSI 1-4); higher = more stable; sorted into four equal gates, so the index is relative within each strain
studyConditions: pdr5∆

Param item = STISAREIQTAVRLILP [HTB1] ; retrieve measured protein stability index.
2.31

Please look up its protein stability index: DLENSPLKTELEANGRS [SSN2]
3.59

Look at this sequence and give its reported protein stability index. LPDEKSDAMSIDEEDKD [YCG1]
2.36

Data request, read-out protein stability index, for TCDEIQNFENDFSLRYI [REC8]
2.12

What value of protein stability index has been recorded for this entry: GLHPFEVAQLGSLACDT [RPB4]
2.25

Sample KIRRAARDLLTRDEKDP [RPS9A] — what was its protein stability index?
2.49

Endpoint output: protein stability index of IRAGEFDVVLTTFEYII [SNF2] . Value?
2.56

# lookup: protein stability index of KNMFEKKASKVTVDADI [ISW2]
2.87

Tell me the measured protein stability index of RSILQSLNPALQEKIST [SWI1] , please.
2.79
